# Tested on: M14
# ASSAY DETAILS: NCI tumour cell line growth inhibition, 48 h
Calls of active or inactive are those of the source. No stated cut-off is given here; in the data, active = GI50 up to about 1.1 µM and inactive = higher.
Choose the fitting class; nothing outside active, inactive is accepted.

Please review the entries below; each comes with its answer.
COMPOUND: CCOC(=O)CCc1c(C)c2c(OC)cc(OC)cc2oc1=O
CAT: inactive

COMPOUND: CCCCCC(/C=C/c1ncccc1OCCCCCC(=O)O)=N\NC1=NCCN1
CAT: inactive

COMPOUND: C[C@]12CC[C@H](OC3OC(CO)C(O)C(O)C3O)C[C@H]1CC[C@@H]1[C@@H]2CC[C@]2(C)[C@@H](C3=CCOC3=O)CC[C@]12O (some centres undefined) [ACTODIGIN]
CAT: inactive

Alright, here's another compound for you.
Request: What outcome does the record of this test show for "Clc1ccc(/C=N/C23CC4CC(CC(C4)C2)C3)c(Cl)c1" ?
Response: inactive

* * *

# Test system: M14
# ASSAY DETAILS: NCI tumour cell line growth inhibition, 48 h
Activity calls are given as the source filed them. Rule as the data show it: active = GI50 up to about 1.1 µM and inactive = higher.
Choose the fitting class; nothing outside 1 = active, 0 = inactive is accepted.

MOLECULE: Nc1nc(N)nc(CC(=O)O)n1
CAT: 0

Request: What outcome does the record of this test show for "C/C(=N\Nc1nc2ccccc2s1)c1cc2ccccc2cn1" ?
Response: 0

Request: What outcome does the record of this test show for COc1ccc(C(c2ccc(C(C)C)cc(=O)c2O)c2ccc3cccnc3c2O)cc1 (stereo not given) ?
Response: 1

Request: What outcome does the record of this test show for COc1cc(OC2OC(CO)C(O)C(O)C2O)c2c(O)c3c(=O)cc(C)oc3cc2c1 (stereo not given) ?
Response: 0

* * *

# Tested on: DU-145
# ASSAY DETAILS: NCI tumour cell line growth inhibition, 48 h
The source made the active and inactive calls. Cut-off read from the data, not from the text of the source: active = GI50 up to about 1.1 µM and inactive = higher.
Below: a set of entries, each annotated with reported GI50.

Example results:
COMPOUND: CNC(=S)N/N=C(\C)c1nc2cccnc2[nH]1
GI50: 55.2 µM (inactive)
//
COMPOUND: COc1ccc(N2C(=O)C(Cl)C2c2cc3cc(Br)ccc3nc2Cl)cc1 (stereo not given)
GI50: 7.46 µM (inactive)
//
COMPOUND: Oc1nc(-c2ccc3ccccc3c2)nc2ccccc12
GI50: > 100 µM (inactive)
//
COMPOUND: N#Cc1nnn(-c2ccc(Br)cc2)c1O
GI50: > 100 µM (inactive)

Now consider a different compound.
Request: Entry C[C@]12CC[C@H](OC3OC(CO)C(O)C(O)C3O)C[C@H]1CC[C@@H]1[C@@H]2CC[C@]2(C)[C@@H](C3=CCOC3=O)CC[C@]12O (stereo not given in full) has what GI50?
Response: > 100 µM (inactive)

* * *

# System: CAKI-1
# ASSAY DETAILS: NCI tumour cell line growth inhibition, 48 h
Calls of active or inactive are those of the source. Rule as the data show it: active = GI50 up to about 1.1 µM and inactive = higher.
Choose the fitting class; nothing outside active, inactive is accepted.

Request: What outcome does the record of this test show for "CC(=O)/C(=C/NC(=S)Nc1ccc(Cl)c(Cl)c1)C(=O)Nc1ccccc1C" ?
Response: inactive

Request: What outcome does the record of this test show for "C#C[C@]1(O)CC[C@H]2[C@@H]3CCC4=C/C(=N/OCCN(C)C)CC[C@]4(C)[C@H]3CC[C@@]21C" ?
Response: inactive

* * *

# Tested on: SR
# ASSAY DETAILS: NCI tumour cell line growth inhibition, 48 h
The source made the active and inactive calls. No stated cut-off is given here; in the data, active = GI50 up to about 1.1 µM and inactive = higher.
Choose the fitting class; nothing outside True for active, False for inactive is accepted.

Please review the entries below; each comes with its answer.
COMPOUND: Clc1ccc(OCc2nnc3sc(-c4ccc(-c5ccc(Cl)cc5Cl)o4)nn23)c(Cl)c1
CAT: False
--
COMPOUND: CP(=O)(O)C(N)c1ccccc1 (configuration not stated)
CAT: False
--
COMPOUND: CCCCCCCCCCCCCCCCCCNc1ccn(C2OC(COP(=O)(O)OCC3OC(n4ccc(N)nc4=O)C(O)C3O)C(O)C2O)c(=O)n1 (configuration not stated)
CAT: False
--
COMPOUND: C/C(=C\CO)CC/C=C(\C)CNc1ccc([N+](=O)[O-])cc1
CAT: False
--
COMPOUND: COC(=O)C1Cc2c([nH]c3ccccc23)C=N1 (configuration not stated)
CAT: False
--
COMPOUND: N#C[C-](C#N)[n+]1ccc(Cl)cc1
CAT: False
--
COMPOUND: CC(C)(C)O/N=C/c1cc(NC(=S)c2ccsc2)ccc1Cl
CAT: False
--
COMPOUND: Clc1ccccc1C(n1ncc2ccccc21)n1ncc2ccccc21
CAT: False

Request: What outcome does the record of this test show for O=C1C(Cl)C(c2ccccc2Cl)N1n1cnc2ccccc2c1=O (configuration not stated) ?
Response: False

Request: What outcome does the record of this test show for "NCC(=O)N[C@H]1c2ccsc2/C(=N/O)[C@H]1O" ?
Response: False

Request: What outcome does the record of this test show for CC(NNC(=O)c1cc[n+]([BH2-]C#N)cc1)c1ccc(Cl)cc1Cl (configuration not stated) ?
Response: False
